target: T1, FZD2 CRD (Homo sapiens, UniProt Q14332); test: Immunofluorescence of anti-FZD5 Fab binding to CHO cells overexpressing Frizzled CRD; set-up: key: −: no binding; +: very weak binder; ++: weak binder; +++: good binder; ++++: very good binder
T1 construct: D35-P161; GPI anchor signal (C); expressed in transfected cells; host or cells: CHO cells, lentiviral pLenti-puro
measurement kind: Immunofluorescence binding, Frizzled CRD overexpressed on CHO cells: FZD2

- Fab-2913: anti-FZD5 Fab with antibody variable region Fv-2913; CDR SEQ ID NOs: 35, 36, 52, 91, 128, 165 (antibody, V domains shown) VH: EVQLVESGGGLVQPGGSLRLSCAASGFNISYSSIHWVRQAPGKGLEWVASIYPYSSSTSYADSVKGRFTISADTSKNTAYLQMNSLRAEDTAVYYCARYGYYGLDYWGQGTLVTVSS VL: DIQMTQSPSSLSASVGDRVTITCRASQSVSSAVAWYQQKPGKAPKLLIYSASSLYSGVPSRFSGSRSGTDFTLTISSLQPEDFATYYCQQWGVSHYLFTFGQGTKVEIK: +++
- Fab-2903: anti-FZD5 Fab with antibody variable region Fv-2903; CDR SEQ ID NOs: 35, 36, 42, 81, 118, 155 (antibody, V domains shown) VH: EVQLVESGGGLVQPGGSLRLSCAASGFNLSYYYIHWVRQAPGKGLEWVASIYPYSSYTSYADSVKGRFTISADTSKNTAYLQMNSLRAEDTAVYYCARGAIDYWGQGTLVTVSS VL: DIQMTQSPSSLSASVGDRVTITCRASQSVSSAVAWYQQKPGKAPKLLIYSASSLYSGVPSRFSGSRSGTDFTLTISSLQPEDFATYYCQQWGGGSSLFTFGQGTKVEIK: −
- Fab-2920: anti-FZD5 Fab with antibody variable region Fv-2920; CDR SEQ ID NOs: 35, 36, 59, 98, 135, 170 (antibody, V domains shown) VH: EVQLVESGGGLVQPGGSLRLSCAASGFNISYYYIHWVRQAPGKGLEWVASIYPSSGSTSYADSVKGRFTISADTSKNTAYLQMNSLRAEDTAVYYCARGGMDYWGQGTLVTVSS VL: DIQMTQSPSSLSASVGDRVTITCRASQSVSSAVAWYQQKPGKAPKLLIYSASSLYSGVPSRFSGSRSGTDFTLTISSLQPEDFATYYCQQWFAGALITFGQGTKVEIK: −
- Fab-2902: anti-FZD5 Fab with antibody variable region Fv-2902; CDR SEQ ID NOs: 35, 36, 41, 80, 117, 153 (antibody, V domains shown) VH: EVQLVESGGGLVQPGGSLRLSCAASGFNISYYYIHWVRQAPGKGLEWVASISSSSSSTSYADSVKGRFTISADTSKNTAYLQMNSLRAEDTAVYYCARGALDYWGQGTLVTVSS VL: DIQMTQSPSSLSASVGDRVTITCRASQSVSSAVAWYQQKPGKAPKLLIYSASSLYSGVPSRFSGSRSGTDFTLTISSLQPEDFATYYCQQWYAFGALITFGQGTKVEIK: −
